assay: Half-life of milvexian; details: human, in vivo

>  <record-smiles>
C[C@@H]1CCC[C@H](n2cnc(-c3cc(Cl)ccc3-n3cc(Cl)nn3)cc2=O)c2cc(ccn2)-c2c(cnn2C(F)F)NC1=O

>  <half-life>
~11 h

$$$$

Data provenance is patent US20250099466A1.
